All figures here come from patent US20140295512A1.

assay.text: KARI assay of purified S. exigua KARI and variants with NADPH (Examples 6-9)
Type: biochemical
Catalogue of kcat NADPH values
Report only the number, with the unit s⁻¹ understood.

Se1_KARI^13G6: S. exigua KARI variant G60V, I95A (protein, UniProt D0WGK0 1-342, looked up, variant G60V I95A) Ketol-acid reductoisomerase …: MSVKTKEKEMAVTILYEQDVDPKVIQGLKVGIIGYGSQGHAHALNLMDSGVDVRVGLREVSSSWKTAEEAGLKVTDMDTAAEEADVIMVLVPDEAQPKVYQEHIAAHLKAGNTLAFAHGFNIHYGYIVPPEDVNVIMCAPKGPGHIVRRQFTEGSGVPDLACVQQDATGNAWDIVLSYCWGVGGARSGIIKATFAEETEEDLFGEQAVLCGGLVELVKAGFETLTEAGYPPELAYFECYHEMKMIVDLMYESGIHFMNYSISNTAEYGEYYAGPKVINEQSREAMKEILKRIQDGSFAQEFVDDCNNGHKRLLEQREAINTHPIETTGAQIRSMFSWIKKED = 0.90

Now take the following molecule into account.
q: Which value of kcat NADPH has been reported for Se1_KARI^JB7-his6: S. exigua KARI variant S63Q (protein, UniProt D0WGK0 1-342, looked up, variant S63Q, His6 tag, S. exigua KARI variant S63Q) Ketol-acid reductoisomerase …: MSVKTKEKEMAVTILYEQDVDPKVIQGLKVGIIGYGSQGHAHALNLMDSGVDVRVGLREGSSQWKTAEEAGLKVTDMDTAAEEADVIMVLVPDEIQPKVYQEHIAAHLKAGNTLAFAHGFNIHYGYIVPPEDVNVIMCAPKGPGHIVRRQFTEGSGVPDLACVQQDATGNAWDIVLSYCWGVGGARSGIIKATFAEETEEDLFGEQAVLCGGLVELVKAGFETLTEAGYPPELAYFECYHEMKMIVDLMYESGIHFMNYSISNTAEYGEYYAGPKVINEQSREAMKEILKRIQDGSFAQEFVDDCNNGHKRLLEQREAINTHPIETTGAQIRSMFSWIKKED in the records?
a: 1.5
